These data points were gathered from the RNAGym collection of RNA variant scans (doi:10.7554/elife.80360).

# Lookup of reported self-cleavage keyed by entry
B1: HDV Ribozyme (parent)
chain: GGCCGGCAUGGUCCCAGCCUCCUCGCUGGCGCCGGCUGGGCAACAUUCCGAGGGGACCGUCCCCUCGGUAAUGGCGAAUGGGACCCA

Variants of: B1
Experiment: self-cleavage, relative activity (ratio to wild type); higher = more cleavage; co-transcriptional
Form: value (number only, do not type unit).

Study these solved cases before continuing.
- item-sequence: "GGCCGGCAUGGUCCCAGCCUCCUCGCUGGCGCCGGCUGGGCAACAUUCCGAGGGGGCCGUCCCCUCGGUAACGGCGAAUGGGACCCA"
  measurement-type: "self-cleavage"
  reading: 0.782
- item-sequence: "GGCCGGCAUGGUCCCAGCCUCCGCGCUGGCGCCGGCUGGGCAACAUUCCGAGGGGACCGUCCCGUCGGUAAUGGCGAAUGGGACCCA"
  measurement-type: "self-cleavage"
  reading: 0.95
- item-sequence: "GGCCGGCAUGGUCCCAGCCUCCUCGCUGGCGCCGGCUGGGCAACAUUCCGAGGGUACCGUGCCCUCGGUAAUGGCGAAUGGGACCCA"
  measurement-type: "self-cleavage"
  reading: 1.11

Please report the recorded self-cleavage for `GUCCGGCAUGGUCCCAGCCUCCUCGCUGGCGCCGGCUGGGCAACAUUCCGAGGGGACCGUCCCCUCGGUAGUGGCGAAUGGGACCCA` .
0.141

Please report the recorded self-cleavage for `GGCCGGCAUGGUCCCAGCCUCCUCGCUGGCGCCGGCUGGGCAACAUUCCGAGGGGACCGUCCCCUGGUUAAUGGCGAAUGGGACCCA` .
0.812

Please report the recorded self-cleavage for `GGCCGGCAUGGUCCCAGCCUCCUCGCUGGCGCCGGCUGGGCAACAUUCCAAGGGGACCGUCCCCUCGGUAAUGGCGAAUGGGACCCG` .
1.01

Please report the recorded self-cleavage for `GGCCGGCAUGUUCCCAGCCUCCUCGCUGGCGCCGGCUGGGCAACAUUCCGAGGUGACCGUCCCCUCGGUAAUGGCGAAUGGGACCCA` .
0.422

Please report the recorded self-cleavage for `GGCCGGCAUGGUCCCAGCCUCCUCGCUGGCGCCGGCUGGGCAACAUUCAGAGGGGACCAUCCCCUCGGUAAUGGCGAAUGGGACCCA` .
0.938

Please report the recorded self-cleavage for `GGCCGGCAUGGUCCCAGCCUCCUCGCUGGCGCCGGCUGGGCAACAUGCCGAGGGGACCAUCCCCUCGGUAAUGGCGAAUGGGACCCA` .
1.14

Please report the recorded self-cleavage for `GGCCGGCAUGGUCCCAGCCUCCUCGCUGGCGCCGGCUGGGCAACAUUCCAAGGGGACCGUCCUCUCGGUAAUGGCGAAUGGGACCCA` .
1.13

Please report the recorded self-cleavage for `GGCCGACAUGGUCCCAGCCUCCUCGCUGGCGCCGGCUGGGCAGCAUUCCGAGGGGACCGUCCCCUCGGUAAUGGCGAAUGGGACCCA` .
0.277

Please report the recorded self-cleavage for `GGCCGGCAUGGUCCCAGCCUCCUCGUUGGCGCCAGCUGGGCAACAUUCCGAGGGGACCGUCCCCUCGGUAAUGGCGAAUGGGACCCA` .
0.36
